System: AmOrc1 IDR (Acropora millepora)
assay: fluorescence polarization
settings: about 100 nM or less; EMSA: 50 mM HEPES pH 7.5, 150 mM K-glutamate, 10% glycerol, 1 mM BME, 2 nM DNA, RT 20 min, 1% agarose; FP: same with 150 or 300 mM K-glutamate, 5 mM MgOAc …
assay_metric: Kd (nM)
Your answer is read as nM, so omit the unit and give the number.

// GAAGCTAGACTTAGGTGTCATATTGAACCTACTATGCCGAACTAGTTACGAGCTATAACC (double strand) [FITC-dsDNA 60 bp] : Kd value = 100

###

system_name: DmORC holocomplex (Orc1-6) (Drosophila melanogaster) (UniProt O16810+Q24168+Q24169+Q9Y1B2)
Sequence (O16810 whole entry, chain 1 of 4): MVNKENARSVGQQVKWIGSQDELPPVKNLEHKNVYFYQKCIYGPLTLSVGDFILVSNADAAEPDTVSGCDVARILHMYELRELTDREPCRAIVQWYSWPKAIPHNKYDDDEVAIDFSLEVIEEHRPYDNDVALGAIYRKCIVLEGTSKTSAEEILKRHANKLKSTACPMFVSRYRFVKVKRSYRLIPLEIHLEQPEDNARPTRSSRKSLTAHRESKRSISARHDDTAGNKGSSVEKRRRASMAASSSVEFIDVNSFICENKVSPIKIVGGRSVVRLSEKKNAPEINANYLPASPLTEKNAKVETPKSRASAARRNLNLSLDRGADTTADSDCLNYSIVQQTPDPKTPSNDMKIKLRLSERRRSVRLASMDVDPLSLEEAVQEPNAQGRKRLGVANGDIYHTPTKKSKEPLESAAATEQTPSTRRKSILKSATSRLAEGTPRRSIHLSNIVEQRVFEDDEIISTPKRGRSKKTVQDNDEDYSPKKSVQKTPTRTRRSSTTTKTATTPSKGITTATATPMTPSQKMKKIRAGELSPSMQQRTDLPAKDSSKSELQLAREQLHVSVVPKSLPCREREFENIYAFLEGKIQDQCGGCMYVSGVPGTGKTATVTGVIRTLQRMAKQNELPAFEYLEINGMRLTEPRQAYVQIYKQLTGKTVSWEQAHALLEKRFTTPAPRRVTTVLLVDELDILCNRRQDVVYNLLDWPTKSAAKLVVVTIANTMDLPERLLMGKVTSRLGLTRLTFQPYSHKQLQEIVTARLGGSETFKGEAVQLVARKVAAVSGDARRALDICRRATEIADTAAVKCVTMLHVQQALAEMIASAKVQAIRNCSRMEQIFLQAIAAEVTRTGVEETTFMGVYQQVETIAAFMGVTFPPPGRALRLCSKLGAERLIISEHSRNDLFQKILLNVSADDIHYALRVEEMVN
Sequence (Q24168 whole entry, chain 2 of 4): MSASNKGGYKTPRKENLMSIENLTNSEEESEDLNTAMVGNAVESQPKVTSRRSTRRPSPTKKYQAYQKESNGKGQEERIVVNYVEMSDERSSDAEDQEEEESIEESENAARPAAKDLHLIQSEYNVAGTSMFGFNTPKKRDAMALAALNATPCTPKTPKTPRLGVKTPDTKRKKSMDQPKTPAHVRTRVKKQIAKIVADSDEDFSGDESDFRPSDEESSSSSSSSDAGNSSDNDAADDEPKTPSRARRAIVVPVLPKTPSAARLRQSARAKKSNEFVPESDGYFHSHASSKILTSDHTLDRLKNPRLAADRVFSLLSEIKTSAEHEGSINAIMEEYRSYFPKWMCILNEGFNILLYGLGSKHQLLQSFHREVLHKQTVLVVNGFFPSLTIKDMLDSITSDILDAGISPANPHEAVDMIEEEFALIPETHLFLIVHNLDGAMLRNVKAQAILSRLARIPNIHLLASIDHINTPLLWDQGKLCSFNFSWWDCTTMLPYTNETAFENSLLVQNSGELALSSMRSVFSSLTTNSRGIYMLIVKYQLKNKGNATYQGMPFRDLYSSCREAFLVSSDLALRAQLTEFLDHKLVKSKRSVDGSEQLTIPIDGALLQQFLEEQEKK
Sequence (Q24169 whole entry, chain 3 of 4): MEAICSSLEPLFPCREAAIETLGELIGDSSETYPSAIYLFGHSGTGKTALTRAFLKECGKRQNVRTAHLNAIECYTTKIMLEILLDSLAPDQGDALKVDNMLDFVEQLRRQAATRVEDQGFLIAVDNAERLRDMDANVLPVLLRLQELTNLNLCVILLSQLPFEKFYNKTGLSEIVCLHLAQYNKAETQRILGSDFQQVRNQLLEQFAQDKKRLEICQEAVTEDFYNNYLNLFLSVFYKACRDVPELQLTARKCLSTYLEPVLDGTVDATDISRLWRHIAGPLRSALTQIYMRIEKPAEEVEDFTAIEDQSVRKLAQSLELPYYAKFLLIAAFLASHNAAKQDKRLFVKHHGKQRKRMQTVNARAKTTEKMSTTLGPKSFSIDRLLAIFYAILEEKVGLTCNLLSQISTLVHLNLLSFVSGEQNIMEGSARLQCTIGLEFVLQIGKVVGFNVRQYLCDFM
Sequence (Q9Y1B2 whole entry, chain 4 of 4): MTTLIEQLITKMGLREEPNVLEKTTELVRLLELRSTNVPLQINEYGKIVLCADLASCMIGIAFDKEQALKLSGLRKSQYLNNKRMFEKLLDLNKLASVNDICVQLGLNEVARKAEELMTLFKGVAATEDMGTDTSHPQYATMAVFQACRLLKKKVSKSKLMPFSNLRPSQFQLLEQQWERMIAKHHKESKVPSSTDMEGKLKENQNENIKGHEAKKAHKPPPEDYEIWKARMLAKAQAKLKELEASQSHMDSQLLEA
assay: fluorescence polarization
settings: EMSA: 50 mM HEPES pH 7.5, 150 mM K-glutamate, 10% glycerol, 1 mM BME, 2 nM DNA, RT 20 min, 1% agarose; FP: same with 150 or 300 mM K-glutamate, 5 mM MgOAc …
assay_metric: Kd
Note: a bare number is incomplete; add the unit.

Noted Kd for GAAGCTAGACTTAGGTGTCATATTGAACCTACTATGCCGAACTAGTTACGAGCTATAACC (double strand) [FITC-dsDNA 60 bp] , tested on DmORC holocomplex (Orc1-6) (Drosophila melanogaster) (UniProt O16810+Q24168+Q24169+Q9Y1B2): 7 nM

###

System: AqOrc1 IDR (Amphimedon queenslandica)
assay: fluorescence polarization
settings: about 100 nM or less; EMSA: 50 mM HEPES pH 7.5, 150 mM K-glutamate, 10% glycerol, 1 mM BME, 2 nM DNA, RT 20 min, 1% agarose; FP: same with 150 or 300 mM K-glutamate, 5 mM MgOAc …
assay_metric: pKd
Keep in mind that pKd stands for -log10 of concentration in molar terms.

// GAAGCTAGACTTAGGTGTCATATTGAACCTACTATGCCGAACTAGTTACGAGCTATAACC (double strand) [FITC-dsDNA 60 bp] : pKd value = 7.00

###

Test system: MyOrc1 IDR (Mizuhopecten yessoensis)
assay: fluorescence polarization
settings: about 100 nM or less; EMSA: 50 mM HEPES pH 7.5, 150 mM K-glutamate, 10% glycerol, 1 mM BME, 2 nM DNA, RT 20 min, 1% agarose; FP: same with 150 or 300 mM K-glutamate, 5 mM MgOAc …
assay_metric: pKd
Keep in mind that pKd stands for -log10 of concentration in molar terms.

// GAAGCTAGACTTAGGTGTCATATTGAACCTACTATGCCGAACTAGTTACGAGCTATAACC (double strand) [FITC-dsDNA 60 bp] : pKd value = 7.00

###

system_name: DmORC delta1IDR holocomplex Orc1:del248-549 (Drosophila melanogaster) (UniProt O16810+Q24168+Q24169+Q9Y1B2)
Sequence (O16810 whole entry, stated change not applied, chain 1 of 4): as the sequence (O16810 whole entry, chain 1 of 4) above
Sequence (Q24168 whole entry, stated change not applied, chain 2 of 4): as the sequence (Q24168 whole entry, chain 2 of 4) above
Sequence (Q24169 whole entry, stated change not applied, chain 3 of 4): as the sequence (Q24169 whole entry, chain 3 of 4) above
Sequence (Q9Y1B2 whole entry, stated change not applied, chain 4 of 4): as the sequence (Q9Y1B2 whole entry, chain 4 of 4) above
assay: fluorescence polarization
settings: EMSA: 50 mM HEPES pH 7.5, 150 mM K-glutamate, 10% glycerol, 1 mM BME, 2 nM DNA, RT 20 min, 1% agarose; FP: same with 150 or 300 mM K-glutamate, 5 mM MgOAc …
assay_metric: Kd (nM)
Your answer is read as nM, so omit the unit and give the number.

// GAAGCTAGACTTAGGTGTCATATTGAACCTACTATGCCGAACTAGTTACGAGCTATAACC (double strand) [FITC-dsDNA 60 bp] : Kd value = 19
